From: patent US20250109203A1

system: human γδ TCR (Vγ9Vδ2) on human Vδ2+ γδ T cells (human) (UniProt A0JD36)
experiment: flow cytometry on expanded human Vδ2+ γδ T cells, nonlinear fit
What Kd was measured for each of the following?
Numbers only, in nM.

Consider the following illustrative entries.
binder	Kd (nM)
hu1D7v65 VHH-hIgG1 Fc-NNT (monomeric) (VHH) VHH: EVQLLESGGGEVQPGGSLRLSCVASRGKISQYRMGWYRQAPGKERELVAHISNTGDAAEYVDAVKDRFTISRDSTKNALYLQMSSLRAEDTAVYKCNSVEDILAWGQGTLVTVRP	347
hu1D7v34 VHH-hIgG1 Fc-NNT (monomeric) (VHH) VHH: EVQLLESGGGEVQPGGSLRLSCVASRGKISQYRMGWYRQAPGKELEWVAHISNTGDAAEYVDSVKGRFTISRDNAKNAVYLQMSSLRAEDTAVYKCNSVEDILAWGQGTLVTVKP	11.7
hu1D7v23 VHH-hIgG1 Fc-NNT (monomeric) (VHH) VHH: EVQLLESGGGEVQPGGSLRLSCVASRGKISQYRMGWYRQAPGKGLEWVAHISNTGDAAEYVDSVKGRFTISRDSTKNALYLQMSSLRAEDTAVYKCNSVEDILAWGQGTLVTVKP	18.1

Hi! Can you tell me Kd for each of these binders?
1. hu1D7v37 VHH-hIgG1 Fc-NNT (monomeric) (VHH) VHH: EVQLLESGGGEVQPGGSLRLSCVASRGKISQYRMGWYRQAPGKELEWVAHISNTGDAAEYVDSVKGRFTISRDSTKNAVYLQMSSLRAEDTAVYKCNTVEDILAWGQGTLVTVKP
2. hu1D7v91 VHH-hIgG1 Fc-NNT (monomeric) (VHH) VHH: EVQLLESGGGEVQPGGSLRLSCVASRGKISQYRMGWYRQAPGKERELVAHISNTGDAAEYVDSVKDRFTISRDSTKNALYLQMSSLRAEDTAVYKCGGVEDILAWGQGTLVTVRP
3. hu1D7v90 VHH-hIgG1 Fc-NNT (monomeric) (VHH) VHH: EVQLLESGGGEVQPGGSLRLSCVASRGKISQYRMGWYRQAPGKERELVAHISNTGDAAEYVDSVKDRFTISRDSTKNALYLQMSSLRAEDTAVYKCSGVEDILAWGQGTLVTVRP
4. hu1D7v73 VHH-hIgG1 Fc-NNT (monomeric) (VHH) VHH: EVQLLESGGGEVQPGGSLRLSCVASRGKISQYRMGWYRQAPGKERELVAHISNTGDAAEYVDIVKDRFTISRDSTKNALYLQMSSLRAEDTAVYKCNSVEDILAWGQGTLVTVRP
5. hu1D7v6 VHH-hIgG1 Fc-NNT (monomeric) (VHH) VHH: EVQLLESGGGEVQPGGSLRLSCVASRGKFSQYRMGWYRQAPGKGLEWVAHISNTGDAAEYVDSVKGRFTISRDSTKNAVYLQMSSLRAEDTAVYKCNSVEDILAWGQGTLVTVKP

[17.4, 154, 95.6, 180, 35.1]
